Biological target: RdRp of the influenza virus (replicon activity) (Influenza A virus, UniProt P03431)
Assay: Influenza virus RdRp replicon reporter (Luc) assay in transduced 293T cells
Format: cell-based, Influenza A/PR/8/34 (H1N1)
Details: Methotrexate concentration 10 μM; read-out: T-705 50% inhibitory concentration
measurement-type: IC50 (µM)
Answers are plain numbers, in µM.

Memo: NC(=O)c1nc(F)cnc1O [T-705, 6-Fluoro-3-hydroxy-2-pyrazinecarboxamide] , reported IC50: 28

###

Target: RdRp of the influenza virus (replicon activity) (Influenza A virus)
Test: Influenza virus RdRp replicon reporter (Luc) assay in transduced 293T cells
Format: cell-based, Influenza A/PR/8/34 (H1N1)
Conditions: 6-Mercaptopurine concentration 0.09 μM; read-out: T-705 50% inhibitory concentration
measurement-type: IC50 (µM)
Numbers only, in µM.

Memo: NC(=O)c1nc(F)cnc1O [T-705, 6-Fluoro-3-hydroxy-2-pyrazinecarboxamide] , reported IC50: 275

Data origin, for the record: patent US20220096468A1
